Each recorded value in this set is attributed to the Deep4Chem optical property database.

method_summary: solvent given as SMILES
condition_notes: in O
assay_metric: emission maximum (nm)

(A) COc1ccc2c(c1)CCC1=C(c3ccccc3)C3=C(c4ccc5cccc(O)c5n4)c4c(-c5ccccc5)c5c(n4[B-](F)(F)[N+]3=C12)-c1ccc(OC)cc1CC5
(B) CCOC(=O)CCOc1ccc(C(c2c(C)[nH]c3ccccc23)c2c(C)[nH]c3ccccc23)cc1
Enquiry: I need your help: which of the pair A , B has higher emission maximum? Answer = label.
Return: A
(A: 680 nm, B: 350 nm)

* * *

method_summary: solvent given as SMILES
condition_notes: in CO
assay_metric: emission maximum (nm)

Previously resolved entries follow.
Looking up COc1ccc(/C=C/C(=O)c2ccccc2O)cc1OC , I see its emission maximum listed as 510

Looking up N#C/C=C/c1ccc2ccc3cccc4ccc1c2c34 , I see its emission maximum listed as 443

Looking up Nc1cc(N)cc(-c2nc3ccccc3s2)c1 , I see its emission maximum listed as 519

(P) CN(C)c1ccc2nc(-c3ccc(C(=O)OC[C@H](NC(=O)OC(C)(C)C)C(=O)OCc4ccccc4)cc3)sc2c1
(Q) c1ccc(Nc2nc(Nc3ccccc3)nc(Nc3cc4ccc5cccc6ccc(c3)c4c56)n2)cc1
Enquiry: For P and Q , which recorded emission maximum is lower? Answer = label.
Return: Q

(I) CC1=[N+]2C(=c3c4c5ccccc5cc5cccc(c6cc(C)n(c36)[B-]2(F)F)c54)C=C1
(II) O=C(O)c1c2ccccc2nc2ccccc12
Enquiry: I need your help: which of the pair I , II has higher emission maximum? Answer = label.
Return: I

(I) N#Cc1ccc2cc[nH]c2c1
(II) COc1ccc(-c2c(-c3ccc(OC)cc3)c3c4c(cccc4c2-c2ccccc2)C(=O)c2ccccc2-3)cc1
Enquiry: For I and II , which recorded emission maximum is lower? Answer = label.
Return: I

(1) COc1ccc(-c2nc(-c3ccccc3)c(-c3ccccc3)[nH]2)cc1
(2) CCN(CC)c1ccc(C2=C3C(C)=CC(/C=C/c4ccc(OCC(=O)OC)cc4)=[N+]3[B-](F)(F)n3c(C)cc(C)c32)cc1
Enquiry: For 1 and 2 , which recorded emission maximum is lower? Answer = label.
Return: 1
(1: 395 nm, 2: 581 nm)

(A) N#Cc1c(-n2nnc3ccccc32)n([C@H]2C[C@H](O)[C@@H](CO)O2)c2ncnc(N)c12
(B) CC1(C)C(/C=C/C=C/C=C/C=C2/N(CS(=O)(=O)[O-])c3ccc(S(=O)(=O)[O-])cc3C2(C)C)=[N+](CS(=O)(=O)[O-])c2ccc(S(=O)(=O)[O-])cc21
Enquiry: I need your help: which of the pair A , B has higher emission maximum? Answer = label.
Return: B
(B: 776 nm, A: 416 nm)

(I) Cc1ccc(NC(=O)c2sc(Br)nc2C)cc1
(II) C[N+]1=C(/C=C/C2=C3Oc4c(cc5c6c4CCCN6CCC5)C(c4ccccc4C(=O)O)=C3CCC2)C(C)(C)c2ccccc21
Enquiry: I need your help: which of the pair I , II has higher emission maximum? Answer = label.
Return: II

(1) Cc1ccc(/C=C/c2nc3ccccc3s2)cc1
(2) CC1(C)C(/C=C/C=C/C=C/C=C2/N(CCCCCC(=O)O)c3ccc(S(=O)(=O)[O-])cc3C2(C)C)=[N+](CCCCS(=O)(=O)[O-])c2ccc(S(=O)(=O)[O-])cc21
Enquiry: For 1 and 2 , which recorded emission maximum is lower? Answer = label.
Return: 1

(P) CCC1=C(C)C2=Cc3ccccc3B(O)N2C1=O
(Q) CN1/C(=C/C=C(/C=C/C2=[N+](C)c3ccccc3C2(C)C)c2ccc(F)cc2)C(C)(C)c2ccccc21
Enquiry: I need your help: which of the pair P , Q has higher emission maximum? Answer = label.
Return: Q
(Q: 666 nm, P: 411 nm)
